System: U-937
protocol-text: Cytotoxicity against human U937 cells after 48 hrs by MTT assay
Assay type: functional, cell-based
setup-conditions: U-937, 48 h
pIC50: −log10 of the molar value.
measured-metric: pIC50

Request: // lookup pIC50 for C=C[C@@]1(C)CC[C@H]2[C@@](O)(CC[C@H]3C(C)(C)C(=O)CC[C@@]32C)C1
Result: < 4.40

Request: // lookup pIC50 for CC(C)c1cc2c(cc1O)CC[C@H]1C(C)(C)CCC[C@]21C [SEMPERVIROL]
Result: < 4.40

Request: // lookup pIC50 for CC(C)c1c(O)ccc2c1CC[C@H]1[C@@](C)(CO)C(=O)C=C[C@]21C [TROGOPTEROID G]
Result: < 4.40
